assay: qHTS for inhibitors of Vif-A3G interactions: Cherry picks; settings: HeLa A3G-eYFP + Vif, 24 h; eYFP fluorescence increase; series mostly up to 36.9 µM; note: nearly all actives have a fitted effect of over 80% in size
In all, about 2,100 compounds went through this assay and about 650 (31%) were called active. Inconclusive results (about 16%) are left out. Calls come from the whole dose curve; as a rule, active = well fitted inhibition curve with a large enough effect; inconclusive = small, poorly fitted or top-dose-only effect; inactive = flat fitted curve, though single readings scatter. The list shows a part of the results.
Outcome field: choose from active, inactive

Cc1cc(C)c2cc3c(N)c(C(=O)Nc4c(C)[nH]c(=O)[nH]c4=O)sc3nc2c1 : active
COc1ccc(NC(=O)C2Cc3c(-c4cccc(NC(C)=O)c4)ccnc3O2)cn1 (stereo not given) : inactive
CC1(C)CCN2CCC(C)(C)c3c(O)ccc1c32 : active
Cc1c(N=C2N=C(NC(=O)c3cccs3)c3ccccc32)c(=O)n(-c2ccccc2)n1C : active
CO/N=C/c1ccc(OC)c(Oc2nc(OC)cc(OC)n2)c1 : inactive
N#Cc1c(C(F)(F)F)cc(-c2cccs2)nc1SCC(=O)Nc1cccc(C(F)(F)F)c1 : active
O=C(O)c1cc(-c2ccc(/C=C3/SC(=S)N(Cc4ccccc4)C3=O)o2)ccc1Cl : active
COc1cc(C2Sc3ccccc3NC3=C2C(=O)OC3)cc(OC)c1OC (stereo not given) : inactive

GET /call?item= CC1=CC(C)(C)NC(=S)N1c1ccc2ccccc2c1 returns the recorded outcome of this test.
inactive

GET /call?item= O=C(/C=C/c1ccco1)NC(=S)Nc1cccc(-c2nc3ccccc3o2)c1 returns the recorded outcome of this test.
inactive

====

experiment: qHTS for inhibitors of Vif-A3G interactions: Cherry picks; conditions: HeLa A3G-eYFP + Vif (tagged APOBEC3G with the HIV-1 protein that degrades it), 24 h; eYFP fluorescence increase; series mostly up to 36.9 µM; note: nearly all actives have a fitted effect of over 80% in size; note: potency is the fitted concentration of half-maximal effect
Among all 2,100 compounds or so, about 650 (31%) were called active. Another 16% or so got no clear call; they are omitted. The list shows a part of the results.
RECORDED ENDPOINT: Potency

CCN(CC)c1ccc(/C=C/c2cc(-c3ccccc3)c3ccccc3n2)cc1 : 11.2 µM (active)
CCCn1nnc(NC(=S)NC(=O)c2ccccc2OC)n1 : inactive
Cn1cccc1/C=C1\CC(C(C)(C)C)C/C(=C\c2cccn2C)C1=O (stereo unspecified) : 7.31 µM (active)
CC1(C(=O)NCc2ccccc2)Cc2c(-c3cccc(C(N)=O)c3)ccnc2O1 (stereo unspecified) : inactive
Cc1cc(N/N=C/c2ccc(O)cc2O)nc(-n2nc(C)cc2C)n1 : inactive
N#C/C(=C/c1ccc(N2CCOCC2)o1)C(=O)NC1CCCCC1 : 18.4 µM (active)
COc1ccc(N=Cc2sc(O)c3ccccc23)cc1 : 12.5 µM (active)
O=C(NCc1ccccc1)C(=O)NCC1COc2ccccc2O1 (stereo unspecified) : inactive
Cc1ccc(/C=N/NC(=O)CCCOc2ccc(Cl)cc2Cl)cc1 : inactive
CCCOc1ccc(N)cc1N : inactive

GET /values?readout=Potency&item= CSc1ccc(/C=N/NC(=O)c2ccccc2Cl)cc1
inactive

GET /values?readout=Potency&item= Cc1ccc(C)c(C2NC(=O)c3ccccc3N2)c1 (stereo unspecified)
inactive

GET /values?readout=Potency&item= CC(=O)c1cc2c(cc1NS(=O)(=O)c1ccc(C)cc1)OCCO2
inactive

GET /values?readout=Potency&item= COC(=O)c1c(-c2ccccc2Cl)noc1/C=C/N(C)C
inactive

GET /values?readout=Potency&item= O=S(=O)(Nc1cccc2ncccc12)c1cccs1
inactive
